Sourced from patent US20250064909A1

# measured.target: T1, recombinant human TIGIT (Sino Biological) (human, UniProt Q495A1 22-138)
# T1 construct: Bought protein; NP_776160.2; also called human TIGIT antigen; hTIGIT
# T1 sequence: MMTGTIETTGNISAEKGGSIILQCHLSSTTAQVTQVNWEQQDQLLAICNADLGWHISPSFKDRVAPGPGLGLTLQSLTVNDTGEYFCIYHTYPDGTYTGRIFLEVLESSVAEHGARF
# test: SPR (Biacore T200), single cycle kinetics, IgG from supernatant captured on anti-human chip, TIGIT as analyte, 1:1 fit;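 further: measured at 25 °C in HBS-P+ with 1% BSA, four ascending TIGIT concentrations, 210 s association per step, one final 900 s dissociation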
List of kon values.
Field format: number, assumed M⁻¹ s⁻¹, no unit text.

kon reading for 7A6 VH5/Vκ5 humanized antibody (human IgG1, kappa) (antibody, V domains shown, Tested as IgG in supernatant of transiently transfected HEK293 EBNA cells) VH: QVQLQESGPGLVKPSQTLSLTCTVTGYSITSDYAWNWIRQPPGKGLEWMGYISYSGSARYNPSLKSRVTISVDTSKNQFSLKLSSVTAADTAVYYCARKGYPAYFAYWGQGTLVTVSS VL: DIQMTQSPSSLSASVGDRVSITCKASQDVSTAVAWYQQKPGQAPRLLIYSASYRYTGVPDRFSGSGSGTDFTLTISSLQPEDFATYYCQHHYSTPYTFGQGTKLEIKR : 1.36e+06

Kindly note the recorded kon for 7A6 VH1/Vκ5 humanized antibody (human IgG1, kappa) (antibody, V domains shown, Tested as IgG in supernatant of transiently transfected HEK293 EBNA cells) VH: DVQLQESGPGLVKPSQTLSLTCTVTGYSITSDYAWNWIRQPPGKGLEWMGYISYSGSARYNPSLKSRITISRDTSMNQFSLKLNSVTAEDTATYYCARKGYPAYFAYWGQGTLVTVSS VL: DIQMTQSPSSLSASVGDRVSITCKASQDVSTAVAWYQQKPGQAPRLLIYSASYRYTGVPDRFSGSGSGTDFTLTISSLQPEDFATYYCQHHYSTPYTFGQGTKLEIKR , which is 1.8e+06

Please fill in: kon reported for 7A6 VH2/Vκ2 humanized antibody (human IgG1, kappa) (antibody, V domains shown, Tested as IgG in supernatant of transiently transfected HEK293 EBNA cells) VH: DVQLQESGPGLVKPSQTLSLTCTVTGYSITSDYAWNWIRQPPGKGLEWMGYISYSGSARYNPSLKSRITISRDTSKNQFSLKLSSVTAEDTATYYCARKGYPAYFAYWGQGTLVTVSS VL: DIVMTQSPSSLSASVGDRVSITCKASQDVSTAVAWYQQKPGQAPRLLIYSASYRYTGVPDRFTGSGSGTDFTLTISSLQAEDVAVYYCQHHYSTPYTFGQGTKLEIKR = 1.65e+06
